Below, each of the compounds is paired with its reported Cure rate (%) value.
System: H. nana
run description: Anti-parasitic effect against H. nana in vivo in infected Swiss albino mice (egg count, cure rate);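 note: fecal egg counts per mouse in groups of 15, controls got soybean oil vehicle alone, cure judged 3 days after final dose by egg reduction and no adult intestinal worms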
Parameters: species or system Hymenolepsis nana
recorded conditions: 100 mg/kg oral daily for 5 days
Please respond with the number in % and leave the unit unwritten.

Short answer please: Cure rate (%), H. nana, entry CC1=CCC2CC1C2(C)C (stereo not shown) 25.0

----------
target or test system: Tyramine receptor (TyrR) (Drosophila melanogaster, UniProt P22270)
Construct: expressed in transfected cells; host or cells: model cells in culture
Sequence (P22270 27-601): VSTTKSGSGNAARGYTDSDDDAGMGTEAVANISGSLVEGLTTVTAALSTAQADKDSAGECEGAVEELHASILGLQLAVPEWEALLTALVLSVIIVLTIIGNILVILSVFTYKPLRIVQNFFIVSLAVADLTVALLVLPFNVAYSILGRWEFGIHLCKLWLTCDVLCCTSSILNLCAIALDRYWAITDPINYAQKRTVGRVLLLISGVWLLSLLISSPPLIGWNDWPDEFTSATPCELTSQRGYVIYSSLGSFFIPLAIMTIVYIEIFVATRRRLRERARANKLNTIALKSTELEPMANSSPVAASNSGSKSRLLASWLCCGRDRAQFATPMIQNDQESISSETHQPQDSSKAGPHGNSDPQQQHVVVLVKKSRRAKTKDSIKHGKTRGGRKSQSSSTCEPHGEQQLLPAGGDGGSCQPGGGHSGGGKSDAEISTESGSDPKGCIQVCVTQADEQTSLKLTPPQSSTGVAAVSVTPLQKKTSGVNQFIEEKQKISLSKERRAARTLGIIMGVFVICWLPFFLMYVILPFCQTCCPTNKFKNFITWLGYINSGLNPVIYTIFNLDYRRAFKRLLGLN
run description: Tyramine receptor binding affinity in cells expressing TyrR
property: Tyramine Receptor Binding Affinity (High or Low)

Observe how each entry below is paired with its result.
compound	target or test system	observed value
CCC(C)(O)CCCC(C)C (stereo not shown) [tetrahydrolinalool]	Tyramine receptor (TyrR) (Drosophila melanogaster, UniProt P22270)	High
CCCCCCCCCCCCOS(=O)(=O)[O-].[Na+] [sodium lauryl sulfate]	Tyramine receptor (TyrR) (Drosophila melanogaster, UniProt P22270)	Low
C/C=C/c1ccc(OC)cc1	Tyramine receptor (TyrR) (Drosophila melanogaster, UniProt P22270)	Low
Cc1ccc(C(C)C)c(O)c1	Tyramine receptor (TyrR) (Drosophila melanogaster, UniProt P22270)	High
CC(C)=CCC/C(C)=C/CO	Tyramine receptor (TyrR) (Drosophila melanogaster, UniProt P22270)	High

# lookup: Tyramine Receptor Binding Affinity (High or Low) of C=CC(C)(O)CCC=C(C)C (stereo not shown) High

Please do the same for OCC=Cc1ccccc1 as well. Low

Here is the next compound: Cc1ccc(C(C)C)cc1 Low

And then CC12CCC(CC1)C(C)(C)O2 , what is it? Low

One more compound: C=CCc1ccc(O)c(OC)c1 Low

What do you get for CCC(=O)OCCc1ccccc1 [phenethyl proprionate] ? Low

And what about the compound OCc1ccccc1 ? Low

Also check CC1=CCC2CC1C2(C)C (stereo not shown) Low
